Origin of values: PubChem BioAssay AID1159580

# Assay method text: chemical genetic growth profiling, strain panel (AID 1159580);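 also: tested at 20 µM; growth read once vehicle control cultures reached saturation at 30 °C; 1 = growth at the plate median or of vehicle wells; lower values mean less growth of the strain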
# Experimental conditions: S. cerevisiae deletion strains, growth OD, locus YFR010W, strain ubp6, hits give low values
The campaign covered roughly 5,500 compounds. About 2,000 (36%) were called active. Inconclusive results (about 18%) are left out. The list shows a part of the results.
For each entry below, report its normalized growth value.
// response body must contain only the number

// query For the compound `C[N+](C)(C)CCOC(N)=O` , give its measured normalized growth value.
// result 1.02

// query For the compound CC1=C(C(C)O)C2=NC1C=c1[nH]c(c(C)c1C(C)O)=Cc1[nH]c(c(CCC(=O)O)c1C)C=c1[nH]c(c(C)c1CCC(=O)O)=C2 (centres undefined) , give its measured normalized growth value.
// result 0.999

// query For the compound CC1CC2C3CC(F)C4=CC(=O)C=CC4(C)C3(F)C(O)CC2(C)C1(O)C(=O)CO (centres undefined) , give its measured normalized growth value.
// result 1.01

// query For the compound `CCCCCCCCCCCCCCCC[N+](C)(C)C` , give its measured normalized growth value.
// result 0.0598

// query For the compound `CCOC(=O)c1c(C)cc(O)c(C=O)c1O` , give its measured normalized growth value.
// result 0.681

// query For the compound `COc1ccc2c(C)cc(=O)oc2c1` , give its measured normalized growth value.
// result 0.966

// query For the compound `COc1cc2c(cc1OC)[C@@H]1C(=O)c3ccc4oc(C(C)C)cc4c3O[C@@H]1CO2` , give its measured normalized growth value.
// result 0.998

// query For the compound `S=c1nc[nH]c2nc[nH]c12` , give its measured normalized growth value.
// result 0.987

// query For the compound `COP(=O)(OC)OC=C(Cl)Cl` , give its measured normalized growth value.
// result 0.994

// query For the compound `COc1ccc2c3c1O[C@H]1C[C@@H](O)C=C[C@@]31CCN(C)C2` , give its measured normalized growth value.
// result 0.986

// query For the compound `CC(C)(O)[C@@H]1[C@H]2OC(=O)[C@@H]1[C@]1(O)C[C@H]3O[C@]34C(=O)O[C@H]2[C@]14C` , give its measured normalized growth value.
// result 1.01

// query For the compound CCN(CC)CCCC(C)Nc1ccnc2cc(Cl)ccc12 (centres undefined) , give its measured normalized growth value.
// result 1.03

// query For the compound `CC(=O)N[C@@H](CC(C)C)C(=O)O` , give its measured normalized growth value.
// result 0.98

// query For the compound `COc1cc(NS(=O)(=O)c2ccc(N)cc2)nc(OC)n1` , give its measured normalized growth value.
// result 0.976

// query For the compound CC(C[N+](C)(C)C)OC(N)=O (centres undefined) , give its measured normalized growth value.
// result 1.02

// query For the compound `NCCSSCCN` , give its measured normalized growth value.
// result 0.994

// query For the compound `CN(C)C(=S)SSC(=S)N(C)C` , give its measured normalized growth value.
// result 0.067

// query For the compound `CCCCNc1cc(C(=O)O)cc(S(N)(=O)=O)c1Oc1ccccc1` , give its measured normalized growth value.
// result 1.01

// query For the compound `CC1=C(/C=C/C(C)=C/C=C/C(C)=C/C=C/C=C(C)/C=C/C=C(C)/C=C/C(=O)[C@]2(C)C[C@@H](O)CC2(C)C)C(C)(C)C[C@H](O)C1` , give its measured normalized growth value.
// result 1.02

// query For the compound C=Cc1c2[nH]c(c1C)C=c1[nH]c(c(C)c1C=C)=CC1N=C(C=c3[nH]c(c(C)c3CCC(=O)O)=C2)C(CCC(=O)O)=C1C (centres undefined) , give its measured normalized growth value.
// result 1.04

// query For the compound `COC1=CC(=O)C[C@@H](C)[C@]12Oc1c(Cl)c(OC)cc(OC)c1C2=O` , give its measured normalized growth value.
// result 0.987

// query For the compound CC(N)C(=O)OC(C)(C)Cc1ccc(Cl)cc1 (centres undefined) , give its measured normalized growth value.
// result 1.03

// query For the compound `CC(=O)OCC[N+](C)(C)C` , give its measured normalized growth value.
// result 1.01

// query For the compound `CCOC(=O)C(C)(C)Oc1ccc(Cl)cc1` , give its measured normalized growth value.
// result 1.01

// query For the compound `O=C(O)c1cc2ccccc2[nH]1` , give its measured normalized growth value.
// result 0.968

// query For the compound `COc1ccc2c(c1)OCc1c-2oc2cc(OC)ccc12` , give its measured normalized growth value.
// result 0.942

// query For the compound COCCc1ccc(OCC(O)CNC(C)C)cc1 (centres undefined) , give its measured normalized growth value.
// result 0.978

// query For the compound CC(=O)O[C@@H]1C[C@@]2(C)C(CC[C@@H]2C(C)=O)C2CCC3=CC(=O)CC[C@]3(C)C21 (some centres undefined) , give its measured normalized growth value.
// result 1.02

// query For the compound `COc1cc2c(cc1OC)[C@@H]1C(=O)c3ccc(O)c(CC=C(C)C)c3O[C@@H]1CO2` , give its measured normalized growth value.
// result 1.01

// query For the compound `CCCCCCNC(=O)n1cc(F)c(=O)[nH]c1=O` , give its measured normalized growth value.
// result 0.757

// query For the compound `COc1ccc2c(c1)O[C@@H]1COc3cc(OC)c(OC)cc3[C@@H]1C2=O` , give its measured normalized growth value.
// result 1.02

// query For the compound `Cc1cc(O)c(C=O)c(O)c1C(=O)O` , give its measured normalized growth value.
// result 0.999

// query For the compound `CC1(C)OC(=O)NC1=O` , give its measured normalized growth value.
// result 1.03

// query For the compound C[C@]12CCC(=O)C=C1CCC1C2CC[C@@]2(C)C1CC[C@@H]2O (some centres undefined) , give its measured normalized growth value.
// result 1

// query For the compound C=C1C2CC[C@H]3[C@]4(C)C[C@H](OC5OC(CO)C(OS(=O)(=O)O)C(OS(=O)(=O)O)C5OC(=O)CC(C)C)C[C@@H](C(=O)O)[C@H]4CC[C@]3(C2)[C@H]1O (some centres undefined) , give its measured normalized growth value.
// result 1.01

// query For the compound CC(=O)OCC(=O)[C@@]1(O)CCC2C3CCC4=CC(=O)CC[C@]4(C)C3C(=O)C[C@@]21C (some centres undefined) , give its measured normalized growth value.
// result 0.977

// query For the compound CC(=O)NC1SCCC1=O (centres undefined) , give its measured normalized growth value.
// result 0.983

// query For the compound `COc1cc2c(cc1OC)[C@@H]1C(=O)c3ccc(OC)c(CC=C(C)C)c3O[C@@H]1CO2` , give its measured normalized growth value.
// result 1.03

// query For the compound `COc1cc2c(cc1OC)[C@@H]1C(=O)c3ccc4c(c3O[C@@H]1CO2)C=CC(C)(C)O4` , give its measured normalized growth value.
// result 1.01

// query For the compound `CC1=C(/C=C/C(C)=C/C=C/C(C)=C/C=C/C=C(C)/C=C/C=C(C)/C=C/C2=C(C)C(=O)CCC2(C)C)C(C)(C)CCC1=O` , give its measured normalized growth value.
// result 0.971

// query For the compound `CC(C)OC(=O)C(C)(C)Oc1ccc(C(=O)c2ccc(Cl)cc2)cc1` , give its measured normalized growth value.
// result 0.964

// query For the compound `CS(=O)(=O)c1ccc(C2=C(c3ccccc3)C(=O)OC2)cc1` , give its measured normalized growth value.
// result 0.961

// query For the compound ClC1=C(Cl)C2(Cl)C3C4C=CC(C4)C3C1(Cl)C2(Cl)Cl (centres undefined) , give its measured normalized growth value.
// result 0.988

// query For the compound CO[C@H]1[C@H](O)[C@H](O[C@H]2CC[C@]3(C)C4CC[C@]5(C)C(C6=CC(=O)OC6)CC[C@]5(O)C4CC[C@@H]3C2)O[C@@H](C)[C@@H]1O (some centres undefined) , give its measured normalized growth value.
// result 1.01
